# assayed.system: human CD33 T356A (human, UniProt P20138 18-364)
# Sequence (P20138 18-364 T356A limits assumed): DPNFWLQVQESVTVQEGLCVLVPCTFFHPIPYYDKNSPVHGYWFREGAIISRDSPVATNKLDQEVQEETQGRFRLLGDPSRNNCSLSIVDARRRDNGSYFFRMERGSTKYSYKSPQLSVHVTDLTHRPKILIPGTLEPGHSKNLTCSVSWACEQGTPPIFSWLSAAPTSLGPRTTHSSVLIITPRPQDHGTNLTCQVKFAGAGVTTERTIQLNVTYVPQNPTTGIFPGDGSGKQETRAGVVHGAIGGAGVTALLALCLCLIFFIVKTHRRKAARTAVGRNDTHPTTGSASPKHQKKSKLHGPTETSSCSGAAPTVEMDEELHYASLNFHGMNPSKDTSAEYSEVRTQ
# assay.name: flow cytometry, alanine scan
readout: Mean % WT Binding

Examples from the recorded data:
- binder: "Refmab #1 (antibody, V domains shown, The alanine scan used IgG or Fab; also called hP67.6) VH: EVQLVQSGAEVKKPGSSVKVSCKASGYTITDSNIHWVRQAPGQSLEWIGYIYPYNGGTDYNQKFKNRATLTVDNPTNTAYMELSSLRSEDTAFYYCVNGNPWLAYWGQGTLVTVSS VL: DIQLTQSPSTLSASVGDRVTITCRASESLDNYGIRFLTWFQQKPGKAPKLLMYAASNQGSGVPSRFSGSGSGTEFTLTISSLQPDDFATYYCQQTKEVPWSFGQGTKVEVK"
  result: "93.5 % of WT"
- binder: "Refmab #4 (antibody, V domains shown, The alanine scan used IgG or Fab) VH: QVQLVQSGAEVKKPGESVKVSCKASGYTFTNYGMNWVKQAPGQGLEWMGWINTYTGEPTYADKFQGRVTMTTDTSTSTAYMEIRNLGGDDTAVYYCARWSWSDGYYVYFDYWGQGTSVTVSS VL: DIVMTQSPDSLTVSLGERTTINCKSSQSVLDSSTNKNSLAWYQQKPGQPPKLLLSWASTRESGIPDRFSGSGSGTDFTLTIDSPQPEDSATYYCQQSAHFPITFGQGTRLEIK"
  result: "107 % of WT"
- binder: "Refmab #2 (antibody, V domains shown, The alanine scan used IgG or Fab) VH: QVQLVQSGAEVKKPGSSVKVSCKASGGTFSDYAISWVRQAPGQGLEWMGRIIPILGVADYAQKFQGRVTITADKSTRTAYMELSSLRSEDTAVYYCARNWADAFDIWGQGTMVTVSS VL: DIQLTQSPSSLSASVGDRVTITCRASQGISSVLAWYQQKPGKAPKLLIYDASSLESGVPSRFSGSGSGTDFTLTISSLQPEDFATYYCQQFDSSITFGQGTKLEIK"
  result: "111 % of WT"

Attention now turns to another entry.
Give the measured Mean % WT Binding for Refmab #3 (antibody, V domains shown, The alanine scan used IgG or Fab) VH: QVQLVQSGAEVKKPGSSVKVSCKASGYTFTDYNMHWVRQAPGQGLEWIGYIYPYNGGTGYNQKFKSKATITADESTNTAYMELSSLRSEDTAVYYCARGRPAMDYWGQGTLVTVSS VL: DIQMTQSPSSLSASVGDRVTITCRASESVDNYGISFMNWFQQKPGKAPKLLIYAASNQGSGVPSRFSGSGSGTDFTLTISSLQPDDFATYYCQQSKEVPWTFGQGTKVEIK 108 % of WT
